# MEASURED_ON: Pro-neuregulin-1, membrane-bound isoform (Homo sapiens) (UniProt Q02297)
# Sequence (Q02297 whole entry, looked up, canonical isoform): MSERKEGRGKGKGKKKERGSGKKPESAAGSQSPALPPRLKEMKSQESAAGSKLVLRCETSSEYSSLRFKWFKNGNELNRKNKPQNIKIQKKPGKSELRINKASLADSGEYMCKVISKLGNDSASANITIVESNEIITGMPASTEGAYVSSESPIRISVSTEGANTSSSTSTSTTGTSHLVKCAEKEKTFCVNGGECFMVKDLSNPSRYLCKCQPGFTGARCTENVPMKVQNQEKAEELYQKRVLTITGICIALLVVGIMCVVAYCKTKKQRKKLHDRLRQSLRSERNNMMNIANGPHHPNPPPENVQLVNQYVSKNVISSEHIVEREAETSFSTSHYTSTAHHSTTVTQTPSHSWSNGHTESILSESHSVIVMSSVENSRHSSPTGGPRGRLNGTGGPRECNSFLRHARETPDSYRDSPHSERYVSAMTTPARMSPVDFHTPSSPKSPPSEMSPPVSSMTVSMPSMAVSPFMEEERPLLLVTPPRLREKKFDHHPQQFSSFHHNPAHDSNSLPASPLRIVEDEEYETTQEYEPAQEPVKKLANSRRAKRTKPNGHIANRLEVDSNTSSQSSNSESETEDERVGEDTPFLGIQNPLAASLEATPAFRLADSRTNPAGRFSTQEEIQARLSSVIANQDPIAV
# ASSAY_REMARKS: NRG1 binders on small-molecule microarrays, primary screen, psychiatric disease protein project, biochemical, small-molecule microarray, fluorescence 635/667 (AID 1075);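 note: score combines 667 nm spot fluorescence with signal to noise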
# TEST_SETTINGS: NRG1 binding, 635 nm fluorescence, higher = more signal
Rule: YES for composite z-score not less than 0.02, NO for anything less.

Consider the worked cases shown below.
1) C=C(COC)C(=O)CC[C@@H](OC(=O)c1ccccc1-c1ccccc1C(=O)O)c1ccccc1OCCO ... NO
2) Cc1ccc(S[C@]2(C(=O)NC3CC3)CC(=O)N(C3Cc4ccccc4C3)[C@@H]2c2ccc(CO)cc2I)cc1 ... YES
3) COc1ccc([Si](C)(C)[C@@H]2[C@@H](CC(=O)N3CCC[C@H]3CO)O[C@]3(C(=O)N(Cc4cccc(N5C(=O)c6cccc7cccc5c67)c4)c4ccccc43)[C@H]2C)cc1 ... YES

Okay, next one:
Does CC(C)N1CC=CC23O[C@@H]4/C=C\CCCOC(=O)C4[C@H]2C(=O)N(C(C)CO)[C@@H]3C1=O (stereo not given in full) have a reported composite z-score of at least 0.02?
YES
